Values from paper PMC6440969

target: P. duboscqi ABI15936 (Phlebotomus duboscqi); construct: made in house; host or cells: E. coli BL21 (DE3) pLysS; test: biochemical; assay type: binding; conditions: affinities (1/Ka)
assay endpoint: Kd

Fill in reported Kd for this entry: CCCCC/C=C\C\C=C/C=C/C=C/[C@@H](SC[C@H](N)C(=O)NCC(=O)O)[C@@H](O)CCCC(=O)O
2 to 6 nM

----------
molecular target: P. papatasi D7 protein AGE83092 (Phlebotomus papatasi, UniProt M1JMQ7); construct: made in house; host or cells: E. coli BL21 (DE3) pLysS; assay: biochemical; format: binding; conditions: Ka
Sequence (M1JMQ7 20-254 limits assumed): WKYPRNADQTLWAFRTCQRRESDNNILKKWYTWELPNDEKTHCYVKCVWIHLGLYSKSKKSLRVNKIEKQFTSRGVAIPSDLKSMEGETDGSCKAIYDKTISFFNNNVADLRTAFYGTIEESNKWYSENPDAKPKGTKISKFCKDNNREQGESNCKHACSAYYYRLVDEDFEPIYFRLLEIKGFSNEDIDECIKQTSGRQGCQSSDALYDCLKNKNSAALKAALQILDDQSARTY
assay endpoint: Kd (nM)
Numbers only; they are read as nM.

Complete the entry with Kd for CCCCC/C=C\C\C=C/C=C/C=C/[C@@H](SC[C@H](N)C(=O)NCC(=O)O)[C@@H](O)CCCC(=O)O
1.75

----------
target: P. duboscqi ABI15936 (Phlebotomus duboscqi, UniProt Q06KA2); construct: made in house; host or cells: E. coli BL21 (DE3) pLysS; assay: biochemical; format: binding; conditions: ITC, single binding site model; protein prepared with Triton X-100
Sequence (Q06KA2 20-249 limits assumed): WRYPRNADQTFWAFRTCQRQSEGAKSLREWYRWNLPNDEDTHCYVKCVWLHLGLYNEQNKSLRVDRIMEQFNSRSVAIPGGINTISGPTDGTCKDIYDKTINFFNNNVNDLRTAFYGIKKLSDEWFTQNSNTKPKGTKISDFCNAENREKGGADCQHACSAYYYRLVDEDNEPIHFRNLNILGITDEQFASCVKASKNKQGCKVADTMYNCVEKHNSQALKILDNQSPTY
assay endpoint: ΔH (kcal/mol)
Number only, in kcal/mol; omit the unit.

Specify the recorded ΔH for CCCCC/C=C\C\C=C/C=C/C=C/[C@@H](SC[C@H](N)C(=O)NCC(=O)O)[C@@H](O)CCCC(=O)O [LTD4] , system: P. duboscqi ABI15936 (Phlebotomus duboscqi, UniProt Q06KA2).
-8.9

State ΔH on P. duboscqi ABI15936 (Phlebotomus duboscqi, UniProt Q06KA2). Entry: CCCCC[C@H](O)/C=C/[C@@H]1[C@@H](C/C=C\CCCC(=O)O)[C@H]2CO[C@@H]1C2 [U46619]
-11.5

Look up and report measured ΔH (P. duboscqi ABI15936 (Phlebotomus duboscqi, UniProt Q06KA2)) for the following molecule: CCCCC/C=C\C\C=C/C=C/C=C/[C@@H](SC[C@H](NC(=O)CC[C@H](N)C(=O)O)C(=O)NCC(=O)O)[C@@H](O)CCCC(=O)O [LTC4]
-8.6

Name the value of ΔH reported for CCCCC/C=C\C\C=C/C=C/C=C/[C@@H](SC[C@H](N)C(=O)O)[C@@H](O)CCCC(=O)O [LTE4] when tested on P. duboscqi ABI15936 (Phlebotomus duboscqi, UniProt Q06KA2).
-7.0

----------
molecular target: P. papatasi D7 protein AGE83092 (Phlebotomus papatasi); construct: made in house; host or cells: E. coli BL21 (DE3) pLysS; assay: biochemical; assay type: binding; settings: affinities (1/Ka)
pKd: −log10 of the molar value.
assay endpoint: pKd

Retrieve pKd measured for CCCCC/C=C\C\C=C/C=C/C=C/[C@@H](SC[C@H](N)C(=O)NCC(=O)O)[C@@H](O)CCCC(=O)O and print it.
8.22 to 8.70
